system: NOS; assay: Radioligand binding of [125I]-calmodulin to NOS; design: scale not given here; conditions: peptide 100 μg/ml; ligand 1 nM, 15 minutes at 23° C.; mean ± SEM
Threshold check on Ligand binding to NOS [125I]-CAM: at or above 80 gives true (1), strictly below gives false (0).

• SSWRRKRKESS [BO58-08, 13; b114 cites it by residues 4-11] = false (0)
• RPEQHKSYKIRF [BO58-10, 17] = false (0)
• QEERKSYKVRF [BO58-09, 16] = true (1)
• WRRKRK [BO58-07, 12] = false (0)

# evaluate next
Exam item: Does SDSRKSSGDGPDLR [BO58-11, 18] have a reported Ligand binding to NOS [125I]-CAM of at least 80?
Marked response: true (1)
